Test system: Sindbis virus
Test: Antiviral activity against Sindbis virus HRsp infected in African green monkey Vero E6 cells assessed as reduction in virus yield after 2 days by real time RT-PCR analysis
Type: functional, organism-based
Settings: 48 h
ENDPOINT_NAME: pEC50
The read-out pEC50 is expressed as -log10 of concentration in moles per litre.

[Q] Give its pEC50 value. Item: CCc1nc2c(nnn2-c2cccc(OC(C)C)c2)c(=O)[nH]1
[A] 4.16

====

Test: Cytotoxicity against non-infected African green monkey Vero cells after 7 days by MTS/PMS method
Type: cell-based
Details: chlorocebus sabaeus
ENDPOINT_NAME: CC50 at 168 h

Example cases with answers are listed next.
CCCc1nc2c(nnn2-c2cccc(OC(C)C)c2)c(=O)[nH]1
> 638 µM
CC(=O)c1cccc(-n2c(C)nc3c(=O)[nH]c(C)nc32)c1
> 703 µM
Cc1nc2c(nnn2-c2cccc(C(=O)c3ccccc3)c2)c(=O)[nH]1
> 604 µM
COc1cccc(-n2nnc3c(=O)[nH]c(C)nc32)c1
> 777 µM
CC(=O)c1cccc(-n2nnc3c(N)nc(C)nc32)c1
> 746 µM
CC(=O)c1ccc(-n2nnc3c(=O)[nH]c(C)nc32)cc1
> 743 µM
CCOC(=O)c1cccc(-n2nnc3c(=O)[nH]c(C)nc32)c1
322 µM
COc1nc(C)nc2c1nnn2-c1cccc(C(C)=O)c1
495 µM
CC(=O)c1cccc(-n2nnc3c(=O)[nH]c(C)nc32)c1
> 743 µM
CC(C)Oc1cccc(-n2nnc3c(=O)[nH]c(-c4ccccc4)nc32)c1
277 µM

Read the next record carefully.
[Q] Give its CC50 at 168 h value. Item: CC(=O)c1cccc(-n2nnc3c(Cl)nc(C)nc32)c1
[A] > 174 µM
